Assay: cancer stem cell viability inhibitors, primary screen, luminescence (AID 2717)
Details: cancer stem cell-like cells viability, at 7.5 µM
Among all 300,000 compounds or so, about 3,200 (1.1%) were called active. No stated cut-off is given here; in the data, active means inhibition above about 75%; inconclusive means no clear call, values can overlap the other calls; inactive means below that; tested in HMLE shEcad cells. The sample holds actives, similar compounds and a random draw of the others, so the mix is not that of the screen.
Respond only with the outcome that fits, drawn from active, inactive

Worked cases, answers included:
• O=C(CN1C(=O)NC2(CCOc3ccccc32)C1=O)Nc1cccc([N+](=O)[O-])c1 (stereo not drawn) = inactive
• COc1cc(OC)cc(-c2c(-c3ccc(F)cc3)c3cc(-c4ccc5cc[nH]c5c4)ccc3n2C)c1 = inactive
• CC(=O)c1ccc(OCCN2CCOCC2)cc1 = inactive

In: Just curious, what result did Cc1ccc(NC(=S)NC(NC(=O)Cc2cccc3ccccc23)C(Cl)(Cl)Cl)cc1 (stereo not drawn) get here?
Out: active

In: Just curious, what result did O=C(O)/C=C/C(=O)Nc1ccc(F)cc1F get here?
Out: inactive

In: Just curious, what result did O=C1CSc2ccc(C(=O)NCc3ccccn3)cc2N1 get here?
Out: inactive

====

Test: cancer stem cell viability inhibitors, primary screen, luminescence (AID 2717)
Conditions: cancer stem cell-like cells viability, at 7.5 µM, stronger effect = higher value
Hit rate of the full screen: of about 300,000 compounds, about 3,200 (1.1%) were called active. Shown is part of a subset that was picked to be rich in actives.
Criterion: inhibition strictly less than -10%. Met: 1.0. Not met: 0.0.

Worked cases, answers included:
• C/C(N)=C(/C#N)C(=O)COC(=O)c1cc(-c2ccc(C)cc2)nc2ccccc12 = 0.0
• Cc1ccc(CNC(=O)CC(NC(=O)c2ccccc2)c2ccccc2)cc1 (stereo unspecified) = 1.0
• CCC(CC)C(=O)N1CCN(c2cccc(C)c2C)CC1 = 1.0
• Cc1ccc2c(c1)c1ncn(Cc3ccc(F)cc3)c(=O)c1n2C = 0.0
• CN(C)CCNC(=O)c1[nH]nc2c1CCc1ccccc1-2 = 1.0

In: Please check: inhibition for COc1cccc(/C=N/NC(=O)c2[nH]nc3c2CCc2ccccc2-3)c1O , strictly under -10% or not?
Out: 0.0

In: Please check: inhibition for COc1ccc2c(c1)c1ncn(Cc3ccccn3)c(=O)c1n2C , strictly under -10% or not?
Out: 1.0

====

Assay: cancer stem cell viability inhibitors, primary screen, luminescence (AID 2717)
Conditions: cancer stem cell-like cells viability, at 7.5 µM
Among all 300,000 compounds or so, about 3,200 (1.1%) were called active. Rule as the data show it: active = inhibition above about 75%; inconclusive = no clear call, values can overlap the other calls; inactive = below that; tested in HMLE shEcad cells. Many of the other results were omitted from the sample, so actives are more common in it than they were.
Respond only with the outcome that fits, drawn from label 1 = active, label 0 = inactive

Worked cases, answers included:
• COc1cccc(C2=CC(=O)C[C@H](c3ccc(OC)c(OC)c3)C2)c1 = label 0
• CC/C(=N\NC(=S)NC(C)C)c1ccc(OC(F)F)cc1 = label 0

In: Just curious, what result did Cc1ccc(NS(=O)(=O)c2ccc(C(C)C)cc2)cc1S(=O)(=O)N1CCOCC1 get here?
Out: label 0

In: Just curious, what result did O=C(CN1CCN(c2ccc(F)cc2)CC1)Nc1ccccc1 get here?
Out: label 0

In: Just curious, what result did O=C1c2ccccc2C(=O)N1CCC#Cc1ccc2cc(C3(O)CCCCC3)oc(=O)c2c1 get here?
Out: label 0

In: Just curious, what result did OC(CNCC1CCCO1)Cn1c2ccc(Br)cc2c2cc(Br)ccc21 (stereo unspecified) get here?
Out: label 1

In: Just curious, what result did Cc1cc(NC(=O)CSc2ncc(C(F)(F)F)cc2Cl)no1 get here?
Out: label 0

In: Just curious, what result did Cc1noc(C)c1S(=O)(=O)N(C)C[C@H]1Oc2ccc(NC(=O)C3CCCCC3)cc2C(=O)N([C@H](C)CO)C[C@@H]1C get here?
Out: label 0

In: Just curious, what result did C=CC[C@@H](CC(=O)N[C@@H](CO)Cc1ccccc1)C(=O)N[C@H](COC(=O)[C@H](CC=C)CC(=O)OC(C)(C)C)Cc1ccccc1 get here?
Out: label 0

In: Just curious, what result did Oc1c(CN2CCN(c3ccc(F)cc3)CC2)cc(Cl)c2cccnc12 get here?
Out: label 1

In: Just curious, what result did CCCC(CNC(=O)COC(=O)C1=NNC(=O)CC1)c1ccc(Cl)cc1Cl (stereo unspecified) get here?
Out: label 0

In: Just curious, what result did Cc1ccc(S(=O)(=O)Nc2nc(CN3CCOCC3)nc3sc(C)c(C)c23)cc1 get here?
Out: label 0

In: Just curious, what result did CC(NS(=O)(=O)c1ccc(Br)cc1)C(=O)NCC1CCCO1 (stereo unspecified) get here?
Out: label 0

In: Just curious, what result did NCCN1CCN2C(=O)CN(C(=O)c3ccccc3)CC12 (stereo unspecified) get here?
Out: label 0

In: Just curious, what result did Oc1ccc(CN2CCN(c3ncccn3)CC2)cc1 get here?
Out: label 0

In: Just curious, what result did CNC(=S)N/N=C/c1cn(Cc2ccc(C)cc2)c2ccccc12 get here?
Out: label 1
